- systemUnderTest: PIK3CD (Human)
- methodNotes: Enzyme Assay
measureName: IC50

C[C@H](NC(=O)c1nc(-c2ccc(S(C)(=O)=O)cc2)cnc1N)c1cc2cccc(Cl)c2c(=O)n1-c1ccccc1 : ≥ 10 µM

Query: May I ask what IC50 has been recorded for "Nc1nn2cccnc2c1C(=O)NCc1cc2cccc(Cl)c2c(=O)n1-c1ccccc1" ?
Result: ≥ 10 µM

Query: So what does the record say about IC50 for "C[C@H](NC(=O)c1cnc2cccnn12)c1cc2cccc(Cl)c2c(=O)n1-c1ccccc1" ?
Result: 0.1 to 1 µM

---

Catalogue of pIC50 values
- systemUnderTest: PIK3CD (Human) (UniProt O00329)
- Sequence (O00329 whole entry, looked up): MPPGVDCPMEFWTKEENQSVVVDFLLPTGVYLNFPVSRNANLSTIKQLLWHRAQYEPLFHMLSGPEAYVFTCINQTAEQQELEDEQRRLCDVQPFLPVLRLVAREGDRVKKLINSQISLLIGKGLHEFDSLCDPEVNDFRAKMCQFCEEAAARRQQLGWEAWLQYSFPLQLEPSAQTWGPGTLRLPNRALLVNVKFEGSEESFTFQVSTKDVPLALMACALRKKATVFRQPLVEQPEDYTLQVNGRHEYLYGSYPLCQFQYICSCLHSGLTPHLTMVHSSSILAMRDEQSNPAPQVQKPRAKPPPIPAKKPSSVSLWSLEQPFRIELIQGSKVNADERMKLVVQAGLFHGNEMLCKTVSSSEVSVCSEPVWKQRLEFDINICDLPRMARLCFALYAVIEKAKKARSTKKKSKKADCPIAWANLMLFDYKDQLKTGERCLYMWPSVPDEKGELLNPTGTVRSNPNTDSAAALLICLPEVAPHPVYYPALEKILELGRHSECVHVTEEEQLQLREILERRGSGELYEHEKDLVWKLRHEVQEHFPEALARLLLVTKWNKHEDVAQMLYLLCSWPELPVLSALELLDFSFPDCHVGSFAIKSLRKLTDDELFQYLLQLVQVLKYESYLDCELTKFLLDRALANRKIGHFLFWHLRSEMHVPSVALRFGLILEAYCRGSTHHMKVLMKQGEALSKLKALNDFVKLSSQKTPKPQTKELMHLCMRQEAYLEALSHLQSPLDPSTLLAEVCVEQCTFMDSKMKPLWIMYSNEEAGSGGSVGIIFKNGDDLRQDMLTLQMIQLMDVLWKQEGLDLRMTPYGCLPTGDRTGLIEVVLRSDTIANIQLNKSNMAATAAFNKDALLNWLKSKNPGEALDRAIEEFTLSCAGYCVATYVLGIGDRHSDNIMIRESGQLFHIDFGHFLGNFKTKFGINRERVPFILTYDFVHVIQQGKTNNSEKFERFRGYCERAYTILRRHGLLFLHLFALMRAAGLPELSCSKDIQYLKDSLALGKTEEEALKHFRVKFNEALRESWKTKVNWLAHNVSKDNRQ
- methodNotes: Cell-Based Assay
- testContext: raji
pIC50: −log10 of the molar value.

Cc1ccn2ncc(C(=O)N[C@@H](C)c3cc4cccc(Cl)c4c(=O)n3-c3ccccc3)c2n1 : 6.00 to 7.00
C[C@H](NC(=O)c1c(N)nn2cccnc12)c1cc2cccc(C#CCNC(=O)c3ccc(C#N)o3)c2c(=O)n1-c1ccccc1 : > 7.00
COc1cc(-c2cccc3nc([C@H](C)NC(=O)c4c(N)nn5cccnc45)n(C4CC4)c(=O)c23)ccn1 : 6.00 to 7.00

Query: Missing value: pIC50, PIK3CD (Human) (UniProt O00329), entry "C[C@H](NC(=O)c1nc(-c2cnn(C)c2)cnc1N)c1cc2cccc(Cl)c2c(=O)n1-c1ccccc1" . Fill in?
Result: 6.00 to 7.00
